System: Alternaria solani
Test: Example C: in vivo preventive test on Alternaria solani (tomato)
Conditions: 500 ppm of active ingredient, evaluated 7 days after inoculation
Measured parameter: Efficacy (%)
Please respond with the number in % and leave the unit unwritten.

Use the examples below as a reference point.
Cn1cc(C(=O)N(C2CC2)C2CCC3CCCC3C2)c(C(F)F)n1 (mixture of isomers) [Example 23]: 80
CC1CC(C)(C)C2CCCC(NC(=O)c3cn(C)nc3C(F)(F)F)C12 (stereo not drawn) [Example 17]: 94
Cn1nc(C(F)F)c(C(=O)N(C2CC2)C2CCC3CCCCC3C2)c1F (mixture of isomers) [Example 38]: 95

Identify the reported Efficacy for the following entry. CC1CC(C)(C)C2CCCC(NC(=S)c3c(C(F)F)nn(C)c3F)C12 (mixture of isomers) [Example 18]
80

Identify the reported Efficacy for the following entry. CC(N(C(=O)c1cn(C)nc1C(F)F)C1CC1)C12CC3CC(CC(C3)C1)C2 (stereo not drawn) [Example 105]
95

Identify the reported Efficacy for the following entry. CCc1nn(C)c(F)c1C(=O)N(C1CC1)C(C)C1CC2CCC1C2 (mixture of isomers) [Example 95]
100

Identify the reported Efficacy for the following entry. CCc1nn(C)c(F)c1C(=O)N(C1CC1)C(C)C12CC3CC(CC(C3)C1)C2 (stereo not drawn) [Example 104]
95

Identify the reported Efficacy for the following entry. CC(C1CC2CCC1C2)N(C(=O)c1cn(C)nc1C(F)F)C1CC1 (stereo not drawn) [Example 94]
100

Identify the reported Efficacy for the following entry. Cn1nc(C(F)F)c(C(=O)NC2CCC3CCCCC3C2)c1Cl (mixture of isomers) [Example 34]
95

Origin of the recorded values: patent US9725414B2
